Assay: Phase 1b pharmacokinetics, Cycle 1 Day 15
Format: in vivo, human
Conditions: human, in vivo, oral; Phase 1b, 500 mg QD, Cycle 1 Day 15, geometric mean
Counter-ions that a name gives are not always drawn.
OBSERVATION_TYPE: AUC

Challenge: Bench note: what AUC did CN1CCC(COc2cnc(-c3cccc(Cn4nc(-c5cccc(C#N)c5)ccc4=O)c3)nc2)CC1 [Tepotinib, tepotinib hydrochloride hydrate] show?
Response given: 16700 ng·h/mL

----------
Assay: Phase 1b pharmacokinetics, Cycle 1 Day 15
Assay type: in vivo, human
Details: human, in vivo, oral, 1000 mg; Phase 1b, 1,000 mg QD, Cycle 1 Day 15, geometric mean
Counter-ions that a name gives are not always drawn.
OBSERVATION_TYPE: Cmax (ng/mL)
Numbers only, in ng/mL.

Challenge: State the recorded Cmax for this entry: CN1CCC(COc2cnc(-c3cccc(Cn4nc(-c5cccc(C#N)c5)ccc4=O)c3)nc2)CC1 [Tepotinib, tepotinib hydrochloride hydrate]
Response given: 1370

----------
Test: Phase 1b pharmacokinetics, Cycle 1 Day 15
Type: in vivo, human
Settings: human, in vivo, oral; Phase 1b, 500 mg QD, Cycle 1 Day 15, geometric mean
Counter-ions that a name gives are not always drawn.
OBSERVATION_TYPE: Cmax (ng/mL)
Answers are plain numbers, in ng/mL.

Challenge: What value of Cmax has been reported for the following compound? CN1CCC(COc2cnc(-c3cccc(Cn4nc(-c5cccc(C#N)c5)ccc4=O)c3)nc2)CC1 [Tepotinib, tepotinib hydrochloride hydrate]
Response given: 815

----------
Assay: Phase 1b pharmacokinetics, Cycle 1 Day 15
Assay type: in vivo, human
Details: human, in vivo, oral; Phase 1b, 300 mg QD, Cycle 1 Day 15, geometric mean
Counter-ions that a name gives are not always drawn.
OBSERVATION_TYPE: Cmax

Challenge: Form field: reported Cmax of CN1CCC(COc2cnc(-c3cccc(Cn4nc(-c5cccc(C#N)c5)ccc4=O)c3)nc2)CC1 [Tepotinib, tepotinib hydrochloride hydrate]
Response given: 585 ng/mL

----------
Assay: Phase 1b pharmacokinetics, Cycle 1 Day 15
Type: in vivo, human
Conditions: human, in vivo, oral, 1000 mg; Phase 1b, 1,000 mg QD, Cycle 1 Day 15, geometric mean
Where a name gives a salt, the structure may show the parent alone.
OBSERVATION_TYPE: AUC (ng·h/mL)
Give bare numbers, in ng·h/mL.

Challenge: Using the record for CN1CCC(COc2cnc(-c3cccc(Cn4nc(-c5cccc(C#N)c5)ccc4=O)c3)nc2)CC1 [Tepotinib, tepotinib hydrochloride hydrate] , report its AUC.
Response given: 28600

Values were extracted from paper PMC8292411.
